molecular target: Luciferin 4-monooxygenase (Photinus pyralis) (UniProt P08659); assay: inhibition of purified Photinus pyralis luciferase – biochemical, luminescence, purified enzyme, 2006 set, primary screen (AID 1141); conditions: purified firefly luciferase, SteadyGlo luminescence, 30 min; higher = more signal, called active from +8 up or from −8 down;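 also: cell-free assay with purified firefly luciferase at 100 ng per well in PBS; test concentration not given here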
Sequence (P08659 whole entry, looked up): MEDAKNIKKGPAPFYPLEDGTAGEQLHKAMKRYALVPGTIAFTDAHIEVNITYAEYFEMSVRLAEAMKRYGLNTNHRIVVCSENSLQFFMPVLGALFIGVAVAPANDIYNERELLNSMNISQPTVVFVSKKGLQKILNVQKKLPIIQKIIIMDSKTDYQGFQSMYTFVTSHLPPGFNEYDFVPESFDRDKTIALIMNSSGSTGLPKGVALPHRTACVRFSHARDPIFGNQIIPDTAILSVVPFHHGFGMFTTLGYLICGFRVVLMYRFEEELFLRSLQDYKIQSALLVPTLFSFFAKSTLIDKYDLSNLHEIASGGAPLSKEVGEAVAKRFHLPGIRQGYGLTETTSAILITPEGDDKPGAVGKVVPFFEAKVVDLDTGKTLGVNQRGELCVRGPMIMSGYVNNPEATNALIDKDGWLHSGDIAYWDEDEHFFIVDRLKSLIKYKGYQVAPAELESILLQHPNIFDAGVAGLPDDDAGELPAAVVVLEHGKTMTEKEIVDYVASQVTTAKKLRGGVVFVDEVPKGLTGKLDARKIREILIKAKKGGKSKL
# binarize z-score: threshold 0.2 inclusive, high side Criterion met, low side Criterion not met

{"COMPOUND": "COC(=O)C1=CC(CCCO)=CC(c2ccc(CN3CCCC3)cc2)N(Cc2cccc(OC(F)(F)F)c2)C=C1C(=O)OC (configuration not stated)", "TARGET_OF_ASSAY": "Luciferin 4-monooxygenase (Photinus pyralis) (UniProt P08659)", "CAT": "Criterion not met"}
{"COMPOUND": "COc1ccc([Si](C)(C)[C@@H]2[C@@H](CC(=O)N(CCO)Cc3ccccc3)O[C@]3(C(=O)N(Cc4cccc(N5CCCCC5=O)c4)c4ccccc43)[C@H]2C)cc1", "TARGET_OF_ASSAY": "Luciferin 4-monooxygenase (Photinus pyralis) (UniProt P08659)", "CAT": "Criterion not met"}
{"COMPOUND": "COc1cc(OC)c(C(O)C2C=CC3C(=O)N(Cc4ccccc4)C(=O)C3N2n2cnnc2)cc1Br (configuration not stated)", "TARGET_OF_ASSAY": "Luciferin 4-monooxygenase (Photinus pyralis) (UniProt P08659)", "CAT": "Criterion met"}
{"COMPOUND": "O=C1O[C@H](c2ccccc2)[C@H](c2ccccc2)N2[C@H]1[C@@H](C(=O)O)[C@]1(C(=O)Nc3ccc(C#CCCO)cc31)[C@H]2c1ccccc1OCCO", "TARGET_OF_ASSAY": "Luciferin 4-monooxygenase (Photinus pyralis) (UniProt P08659)", "CAT": "Criterion not met"}
{"COMPOUND": "[N-]=[N+]=NCc1ccccc1[C@@H]1OC(c2ccc(OCCCO)cc2)=N[C@]1(CCS(=O)(=O)c1ccccc1)C(=O)O", "TARGET_OF_ASSAY": "Luciferin 4-monooxygenase (Photinus pyralis) (UniProt P08659)", "CAT": "Criterion not met"}
{"COMPOUND": "Cc1ccc(S[C@]2(C(=O)NCCN3CCOCC3)CC(=O)N(Cc3ccccc3Cl)[C@@H]2c2ccc(CO)cc2I)cc1", "TARGET_OF_ASSAY": "Luciferin 4-monooxygenase (Photinus pyralis) (UniProt P08659)", "CAT": "Criterion not met"}
{"COMPOUND": "COCCCNC(=O)[C@@]1(Sc2ccc(C)cc2)CC(=O)N(C2Cc3ccccc3C2)[C@@H]1c1ccc(CO)cc1", "TARGET_OF_ASSAY": "Luciferin 4-monooxygenase (Photinus pyralis) (UniProt P08659)", "CAT": "Criterion met"}

---

target: Left-right determination factor 2 (Homo sapiens); experiment: small molecules binding LEFTY2 protein – biochemical, small-molecule microarray, 635 nm fluorescence scan, primary screen (AID 1110); settings: higher = more signal
MEASURED_ENDPOINT: composite z-score

{"COMPOUND": "C=CCN1C(=O)[C@]2(CCS(=O)(=O)c3ccccc3)N=C(c3ccc(OCCCO)cc3)O[C@@H]2c2ccccc21", "TARGET_OF_ASSAY": "Left-right determination factor 2 (Homo sapiens)", "TEST_RESULT": 0.59}
{"COMPOUND": "CCOC(=O)C[C@H]1[C@H](OC(=O)c2ccc(C(=O)c3ccccc3)cc2)[C@@H](NC(=O)C2CCCCC2)c2cc(OCCCO)ccc2N1C(=O)c1ccc2ccccc2n1", "TARGET_OF_ASSAY": "Left-right determination factor 2 (Homo sapiens)", "TEST_RESULT": 0.752}
{"COMPOUND": "COCCOC(=O)N1C(=O)[C@@]2(c3ccccc31)[C@H](C(=O)NC[C@H](O)c1ccccc1)[C@H]1C(=O)O[C@H](c3ccccc3)[C@H](c3ccccc3)N1[C@@H]2c1ccc(O)cc1", "TARGET_OF_ASSAY": "Left-right determination factor 2 (Homo sapiens)", "TEST_RESULT": 0.768}
{"COMPOUND": "CN(C)C(=O)[C@]1(CCC(=O)OC(C)(C)C)N=C(c2ccc(OCCCO)cc2)O[C@@H]1c1ccccc1CN=[N+]=[N-]", "TARGET_OF_ASSAY": "Left-right determination factor 2 (Homo sapiens)", "TEST_RESULT": -0.502}
{"COMPOUND": "CCCCC(CC)C(O)C1C=CC2C(=O)N(c3ccccc3)C(=O)C2N1Nc1ccc(C#N)cc1 (stereo not drawn)", "TARGET_OF_ASSAY": "Left-right determination factor 2 (Homo sapiens)", "TEST_RESULT": 0.111}
{"COMPOUND": "O=C1OCCC=C[C@H]2OC34C=CCN(Cn5nnc6ccccc65)C(=O)[C@H]3N(CCCO)C(=O)[C@@H]4C12 (stereo partly drawn)", "TARGET_OF_ASSAY": "Left-right determination factor 2 (Homo sapiens)", "TEST_RESULT": -1.02}
{"COMPOUND": "COc1cccc(C)c1NC(=O)O[C@H]1[C@H](OC(=O)Nc2ccccc2-c2ccccc2)[C@H](OC(=O)Nc2ccccc2-c2ccccc2)[C@@H](OC)O[C@@H]1CO", "TARGET_OF_ASSAY": "Left-right determination factor 2 (Homo sapiens)", "TEST_RESULT": 0.679}
{"COMPOUND": "COc1ccc(CCNC(=O)[C@@H]2c3ccccc3C(=O)N(C3CCCCC3)[C@H]2c2ccc(CO)cc2)cc1", "TARGET_OF_ASSAY": "Left-right determination factor 2 (Homo sapiens)", "TEST_RESULT": -0.306}
{"COMPOUND": "CCOC(=O)C[C@H]1[C@H](OC(=O)c2cc3ccccc3oc2=O)[C@@H](NC(=O)CC(C)C)c2cc(OCCCO)ccc2N1C(=O)c1ccc2ccccc2n1", "TARGET_OF_ASSAY": "Left-right determination factor 2 (Homo sapiens)", "TEST_RESULT": 0.643}
{"COMPOUND": "COCCOC(=O)N1C(=O)[C@@]2(c3cc(C#CCC(C(=O)OC)C(=O)OC)ccc31)[C@H](c1ccc(OCCO)cc1)N1[C@H](c3ccccc3)[C@H](c3ccccc3)OC(=O)[C@H]1[C@@H]2C(=O)N1CCc2cc(OC)c(OC)cc2C1", "TARGET_OF_ASSAY": "Left-right determination factor 2 (Homo sapiens)", "TEST_RESULT": 0.52}
{"COMPOUND": "CCCNC(=O)[C@@]1(Sc2ccc(C)cc2)CC(=O)N(C2Cc3ccccc3C2)[C@@H]1c1ccc(CO)cc1I", "TARGET_OF_ASSAY": "Left-right determination factor 2 (Homo sapiens)", "TEST_RESULT": 0.698}
{"COMPOUND": "CC(C)C(CO)N1C(=O)[C@@H]2C3C(=O)OCCC/C=C\\[C@H]3OC23C=CCN(c2ccc4ccccc4c2)C(=O)[C@@H]13 (stereo partly drawn)", "TARGET_OF_ASSAY": "Left-right determination factor 2 (Homo sapiens)", "TEST_RESULT": -1.43}
{"COMPOUND": "C=CCNC(=O)[C@@H]1[C@H]2C(=O)O[C@H](c3ccccc3)[C@H](c3ccccc3)N2[C@H](c2ccccc2OCCO)[C@@]12C(=O)Nc1ccc(C#CCC(C(=O)OC)C(=O)OC)cc12", "TARGET_OF_ASSAY": "Left-right determination factor 2 (Homo sapiens)", "TEST_RESULT": -0.034}

---

experiment: probe aLefty1 binding on compound microarray – biochemical, small-molecule microarray, 635/667 nm fluorescence, primary screen (AID 1153); conditions: higher = more signal;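 also: score merges spot fluorescence with signal-to-noise ratio from the scanned slide images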
Response field class: string, computed from recorded composite z-score by ranges range 1 (below -0.05), range 2 (-0.05 to below 0.2), range 3 (0.2 or more)

{"COMPOUND": "CC(C)N1C(=O)C[C@@](C(=O)NC2CC2)(c2ccc([N+](=O)[O-])cc2)[C@H]1c1ccc(CO)cc1", "CAT": "range 1"}
{"COMPOUND": "O=C1C2C=CC(C(O)c3cccc(O)c3)N(Nc3ccc([N+](=O)[O-])cc3)C2C(=O)N1c1ccccc1 (stereo not given)", "CAT": "range 2"}
{"COMPOUND": "COCCOC(=O)N1C(=O)[C@@]2(c3cc(C#CC4=CCCCC4)ccc31)[C@H](C(=O)Nc1nc3ccccc3s1)[C@H]1C(=O)O[C@H](c3ccccc3)[C@H](c3ccccc3)N1[C@@H]2c1ccc(O)cc1", "CAT": "range 2"}
{"COMPOUND": "C=CC[C@@]1(C(=O)NCCCOC)N=C(c2ccc(OCCCO)cc2)O[C@@H]1c1ccccc1N=[N+]=[N-]", "CAT": "range 3"}
{"COMPOUND": "CCCNC(=O)[C@@]1(C)c2ccccc2C(=O)N(c2ccc(C)cn2)[C@H]1c1ccc(CO)cc1", "CAT": "range 2"}
{"COMPOUND": "CCOC(=O)C[C@H]1[C@H](OC(=O)Cc2ccc3c(c2)OCO3)[C@@H](NC(=O)C2CCCCC2)c2cc(OCCCO)ccc2N1C(=O)c1ccccc1", "CAT": "range 1"}
{"COMPOUND": "CCOC(=O)C1=CC[C@@H](c2ccccc2)N(S(=O)(=O)c2ccc(C)cc2)[C@H]1c1ccccc1", "CAT": "range 2"}
{"COMPOUND": "COc1ccc(C(=O)Nc2ccc(CN3C(=O)[C@]4(O[C@H](CC(=O)N5Cc6ccccc6C[C@H]5CO)[C@@H]([Si](C)(C)c5ccc(OC)cc5)[C@@H]4C)c4ccccc43)cc2)cc1", "CAT": "range 2"}
{"COMPOUND": "COC(=O)C1=CC(CCCO)=CC(c2cccs2)N(C)C=C1C(=O)OC (stereo not given)", "CAT": "range 2"}
{"COMPOUND": "C=CCN1Cc2ccccc2[C@@H]2OC(c3ccc(OCCCO)cc3)=N[C@]2(CC=C)C1=O", "CAT": "range 3"}
{"COMPOUND": "COCCOC(=O)N1C(=O)[C@@]2(c3ccccc31)[C@H](c1ccc(O)cc1)N1[C@H](c3ccccc3)[C@H](c3ccccc3)OC(=O)[C@H]1[C@@H]2C(=O)N1CCN(c2ncccn2)CC1", "CAT": "range 3"}
{"COMPOUND": "CCOC(=O)C[C@H]1[C@H](OC(=O)c2ccc(C(=O)c3ccccc3)cc2)[C@@H](NC(=O)CC(C)C)c2cc(OCCCO)ccc2N1C(=O)c1ccccc1", "CAT": "range 1"}
{"COMPOUND": "CCOC(=O)C[C@H]1[C@H](OC(=O)c2ccc(C(=O)c3ccccc3)cc2)[C@@H](NC(=O)c2ccc(-c3ccccc3)cc2)c2cc(OCCCO)ccc2N1C(=O)Cc1ccc(OC)cc1", "CAT": "range 3"}
{"COMPOUND": "C=C(COC)C(=O)CC[C@@H](OC(C)=O)c1cccc(OCCO)c1", "CAT": "range 1"}

Source listed as PubChem BioAssay.
